Consider the following variants; for each one, report its yeast fitness.
B1: tRNA (parent)
chain: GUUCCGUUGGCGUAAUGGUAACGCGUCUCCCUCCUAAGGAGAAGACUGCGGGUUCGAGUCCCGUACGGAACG

# Variants of: B1
# Assay details: yeast fitness relative to wild type (ratio to wild type); higher = fitter; tRNA-Arg(CCU), competitive growth, 37 C, YPD
Variants at the floor of the assay were thinned out.
Form rule: numeric answer, no unit written next to it.

Q) Given the variant C33U A42C A70C , what is its reported yeast fitness?
A) 0.671

Q) Given the variant G25C C30A , what is its reported yeast fitness?
A) 0.792

Q) Given the variant C55G A57U , what is its reported yeast fitness?
A) 0.633

Q) Given the variant G39C A57U , what is its reported yeast fitness?
A) 0.682

Q) Given the variant U19A C27G G63C , what is its reported yeast fitness?
A) 0.754

Q) Given the variant U26C A45G C55A C66U , what is its reported yeast fitness?
A) 0.701

Q) Given the variant U32C A42C C46U , what is its reported yeast fitness?
A) 0.63

Q) Given the variant C4G U13G U16C , what is its reported yeast fitness?
A) 0.566

Q) Given the variant A42U C46U A57U , what is its reported yeast fitness?
A) 0.538

Q) Given the variant A14G A45U C61U , what is its reported yeast fitness?
A) 0.665

Q) Given the variant C34G U54A U59C A65G A70G , what is its reported yeast fitness?
A) 0.84

Q) Given the variant C11G G48A , what is its reported yeast fitness?
A) 0.582

Q) Given the variant C24A C27U A40U A57C , what is its reported yeast fitness?
A) 0.512

Q) Given the variant C11G U16C C27G C61U , what is its reported yeast fitness?
A) 0.545

Q) Given the variant U26G U28A A43G C61U G67A , what is its reported yeast fitness?
A) 0.599

Q) Given the variant C5U U8A G18C C29U A45C , what is its reported yeast fitness?
A) 0.554

Q) Given the variant C4U A21G C49U , what is its reported yeast fitness?
A) 1.01

Q) Given the variant U3G C5U , what is its reported yeast fitness?
A) 0.724

Q) Given the variant G10A G39A , what is its reported yeast fitness?
A) 0.784

Q) Given the variant C11G C49U C61A , what is its reported yeast fitness?
A) 0.582

Q) Given the variant G9A C29A A37G , what is its reported yeast fitness?
A) 0.513

Q) Given the variant U3C A36G C61U , what is its reported yeast fitness?
A) 0.623

Q) Given the variant C4U C27A C31U A43U , what is its reported yeast fitness?
A) 0.57

Q) Given the variant C4G U28G , what is its reported yeast fitness?
A) 0.696

Q) Given the variant A14G A15G A45U C66U , what is its reported yeast fitness?
A) 0.619

Q) Given the variant U3C C27G C33A , what is its reported yeast fitness?
A) 0.655

Q) Given the variant C30A G48C C61U , what is its reported yeast fitness?
A) 0.631

Q) Given the variant C55U C62G , what is its reported yeast fitness?
A) 0.739

Q) Given the variant C4U C24G , what is its reported yeast fitness?
A) 0.591

Q) Given the variant C29G C49G G50C C62G A69U , what is its reported yeast fitness?
A) 0.506

Q) Given the variant A36C G52C C66U , what is its reported yeast fitness?
A) 0.54

Q) Given the variant A15G A45U A70U , what is its reported yeast fitness?
A) 0.692

Q) Given the variant A14G G39A , what is its reported yeast fitness?
A) 0.751

Q) Given the variant C11G A14U U19A G25A C34U C60U G68A , what is its reported yeast fitness?
A) 0.517

Q) Given the variant A36G A37U C55G , what is its reported yeast fitness?
A) 0.69

Q) Given the variant U47G C49A A69U , what is its reported yeast fitness?
A) 0.573

Q) Given the variant A14U A70U , what is its reported yeast fitness?
A) 0.713
